Experiment: Clearance in Beagle dog at 1 mg/kg, iv
Assay type: ADME, organism-based, Canis lupus familiaris
Set-up: dose 1 mg/kg, route intravenous
Details: in vivo
quantity: clearance

Fill in: clearance of Cc1nc(N2CCN(C)CC2)c2nc(-c3ccccc3Cl)n([C@H](C)CO)c2n1 is ___ 38 mL/min/kg

---

Assay: Cmax in Beagle dog at 1 mg/kg, iv and 1 mg/kg, po
Type: ADME, organism-based, Canis lupus familiaris
Conditions: in vivo
quantity: Cmax
Phrase the answer as number then unit, nothing more needed.

Fill in: Cmax of Cc1nc(N2CCN(C)CC2)c2nc(-c3ccccc3Cl)n([C@H](C)CO)c2n1 is ___ 43 ng/mL
